measurement_description: inhibitors of hydroxyurea-induced Chk1 phosphorylation, primary screen, imaging, HeLa, phospho-Chk1 nuclear intensity (AID 1187); also: test concentration not given here
test_parameters: hydroxyurea-induced phospho-Chk1 immunofluorescence imaging, higher = more signal
Quick reference for z-score among some compounds

>  <compound>
Cc1ccc(F)cc1S(=O)(=O)N[C@@H]1CCN(Cc2cccc3[nH]ccc23)C1

>  <z-score>
-0.948

$$$$
>  <compound>
COc1cc(NN2C(C(O)C3CCCCC3)C=CC3C(=O)N(c4ccccc4)C(=O)C32)cc(OC)c1OC (stereo not given)

>  <z-score>
-0.253

$$$$
>  <compound>
COC(=O)[C@@]1(Cc2ccc(OC)cc2)[C@H]2c3cc(C(=O)N4CCCC4)n(Cc4ccc(S(C)(=O)=O)cc4)c3C[C@H]2CN1C(=O)c1ccccc1

>  <z-score>
0.202

$$$$
>  <compound>
C=CCNC(=O)[C@@H]1[C@H]2C(=O)O[C@H](c3ccccc3)[C@H](c3ccccc3)N2[C@H](c2ccc(O)cc2)[C@@]12C(=O)Nc1ccc(C#CCC(C(=O)OC)C(=O)OC)cc12

>  <z-score>
-0.625

$$$$
>  <compound>
CCOC(=O)C1=CC[C@@H](c2ccccc2)N(S(=O)(=O)c2ccc(C)cc2)[C@H]1C=Cc1ccccc1

>  <z-score>
-0.645

$$$$
